- Test system: K4 kissing-loop RNA reporter
- protocol: apparent KD of K4 kissing-loop reporter; higher = weaker reporter binding
- measurement_conditions: Eterna round: R107; input ligand: arginine 13.2 mM
apparent KD of K4 kissing-loop reporter of 200 nM or higher: satisfied. Under 200 nM: not satisfied.

Worked examples, 5 sequences total:
Ask | Reported apparent KD of K4 kissing-loop reporter at or above 200 nM? AAUAAAAUCACGGCCGCCACUGAUGCUAAUAUUAGCAGUGAUGUUGCUAUGUAUAUUUUAUUUAACAGGACCGGGUGAAUAUUUA [JR_ExcTryptoB_Sub014]
Reply | not satisfied

Ask | Then this sequence: UAAUUGCAGUGAUGUUGCAAAUGUCCUGACUAGGAUAUCAGGAAACUGAGAAGGAGUCCCUUCUAUUGCAACAAGAAGGAGGAUA [KL-SSFMN-A14]
Reply | satisfied

Ask | Also, CAAACUCUGACGGCCGCCACUAAUCGUGUAACAGUGAUGUUGUUACAUCAAAGAUGGGUUGCGUGUAGGACCGGGUCGACGCAAA [theeternabot_exclusion_KL_Trp_B_48] please.
Reply | not satisfied

Ask | Request: AUUUAAUGUAUAGAUUAUAUACAUAAUUCAGAGGAUAUGCAUAGAAGCAGAAGGCUGGUUGCAGUGAUGUUGCUUUUUUAAUUUA [JR_SSFMNA_Sub008]
Reply | not satisfied

Ask | Next record, please: AAUAAAAUCACGGCCGCCACUGAUACUAGUAUUAGCAGUGAUGUUGCUAUGUAUAAUUUAUUAAAUAGGACCGGGUGAAUAUUUA [#25 K4 Tryptophan B Exclusion]
Reply | satisfied

---
Ask | Could you please find out whether GGCCGGUUGAAAGGCCGGCCAGAAACCGAAGGAGCGCGAAGAAACGCAGGUAGGUCGCGGAAAACAUGACCAGUGAUGUUGGUCG has apparent KD of K4 kissing-loop reporter that meets 200 nM or exceeds it?
Reply | not satisfied

* * *

- Tested on: MS2 coat protein
- protocol: apparent KD of MS2 coat protein; higher = weaker reporter binding
- measurement_conditions: Eterna round: R107; input ligand: theophylline 2 mM
Recorded apparent KD of MS2 coat protein by entry
Numbers only here, please. The scale is nM.

Ask | Using the record for UUUAAAUAGACGGCCGCCACUGGAAUUAAUACAUGAGGAUCACCCAUGUAGAGAGAAUAAUAAUACAGGACCGGGUCUUCAUGAA [SS Tryp B Tesla 1] , report its apparent KD of MS2 coat protein.
Reply | 38.9

Ask | Do the same for UGUAUGGACUGAAGGAGCGGGAAAAUAACCUGAGGAUCACCCAGGUAAAAGGCGAAAGCCACCCAGGUAGGUCGCAGUCCAUACU please
Reply | 10.6

Ask | Now consider UGCUACAUGAGGAUCACCCAUGUGGGUGAUACCAGCAUUCGUUAAUGCCCUUGGCAGCGCAGCCGAACCAUUCAUUCGGCAGAUC [Laxeor] .
Reply | 382

Ask | Next: CUGGACAUGAGGAUCACCCAUGUAAAUCCUCGAGGACCGGUACGGCCGCCACUCGAACGAGUGGCACGCGAGUGCGCACUCGCGU [aLa]
Reply | 36.2

Ask | Another sequence to check: CGAGUAAGAACAAUCGAAUAACGGUUUUCGCGAGGACCGGUACGGCCGCCACUCGUGUGAAAUAACACAUGAGGAUCACCCAUGU [3'end-1]
Reply | 27.3

We next turn to a different sequence, shown below.
Ask | Find the recorded apparent KD of MS2 coat protein belonging to ACUAGGCUCGGAAACGAGCCUAGGACAGAAGGAGCGUGGAUUAACACAGGUAGGUCGCUGACAUGAGGAUCACCCAUGUAUUAUU [SSAA #2] and report it.
Reply | 25.3

* * *

- Tested on: MS2 coat protein
- protocol: apparent KD of MS2 coat protein; designed switch direction (-1 OFF switch, 1 ON switch): -1; higher = weaker reporter binding
- measurement_conditions: Eterna round: R95; input ligand: none
observation_type: apparent KD of MS2 coat protein (µM)
Express your answer in µM, writing the number without its unit.

Reference set (4 entries):
Ask | Entry under review: GGUUGGCGAGGAUAUACAUGAGGAUCACCCAUGUGAGAGAAUAAAGUGAGGAAGAAAAGUAGAAGGCGCUGACG [salish99_ex3_r3_013] (puzzle: Exclusion 3) . Reported apparent KD of MS2 coat protein?
Reply | 0.047

Ask | Then this sequence: UGUACGAUGCGUGCUGACAUGCGUCGUGCAGCAGGUGGAACAUGAGGAUCACCCAUGUCCUCAUUUGCUCGUCUUGU [SL-sv3-2.10 JL mod] (puzzle: Sensor v3, turn-off variant 2)
Reply | 0.0523

Ask | // same read-out, input: AAUAAGCUAGGAUAUACAUGAGGAUCACCCAUGUGAGGGCACCGCCGGCGCGGGCCCGGUAGAAGGAGUCAUAA [Exc;s3-V] (puzzle: Exclusion 3)
Reply | 0.0277

Ask | Follow-up entry: CCGGCUUAGGAGGAUAUAGGAGUCGAUAGACACCUAGAAGGCCUGACAUGAGGAUCACCCAUGUGUCCUACCGG [Fiskers Ex 6 - 98] (puzzle: Exclusion 6)
Reply | 0.0165

Pending sequence:
Ask | Look up apparent KD of MS2 coat protein for this sequence: GAAAAGGUAGGAUAUACGAAGAAAAAGGGUAGAAAAAAAACACAUGAGGAUCACCCAUGUAGAAGGACCAAAAG [salish99_ex2_r3_028] (puzzle: Exclusion 2)
Reply | 0.0202

* * *

- Test system: MS2 coat protein
- protocol: apparent KD of MS2 coat protein; designed switch direction (-1 OFF switch, 1 ON switch): 1; higher = weaker reporter binding
- measurement_conditions: input ligand: none
Quick reference: apparent KD of MS2 coat protein of the listed items.
Show the value, then the unit it is measured in.

Ask | Fill in the recorded apparent KD of MS2 coat protein for this sequence, with MS2 coat protein as test system: GUGGUGGGUUGAGGAUAUUGGUUGUUGUUGUUCCACAUGAGGAUCACCCAUGUGGGUUGUGGUUUUGAGAAGGUUGGUUGCUGG [salish99_SSNG2_r04_050] (Eterna round: R96, puzzle: Same State NG 2)
Reply | 20.3 nM

Ask | What do you have for GGAAUAUUUACAGGAUAUGAUUUGUUAAGUCGAUCAGAAGGGUGGAUGUCUUACACGGUUUGUUACAUGAGGAUCACCCAUGUC [SameState NG1 #14] (Eterna round: R96, puzzle: Same State NG 1) ?
Reply | 176 nM

Ask | Repeat with GCUCGUGGUAUUGUCUACAUGAGGAUCACCCAUGUAGGUGCGGAGGAUAUCUACGUGUCUCAUGUAGAGAAGGUCGUCACGAGC [SameState NG3 #99] (Eterna round: R96, puzzle: Same State NG 3)
Reply | 38.7 nM

Turning now to a further sequence:
Ask | What is its apparent KD of MS2 coat protein for MS2 coat protein? Entry: GCUACGGACGUAGGAUAUGUAGGAUAUGGUGAGAGCUAAGCUUGGAAGUCACUUCAACCAGAAGGACAGAAGGACGCCGUGAGG [pwkr ssNG2 2FMN + F9.18] (Eterna round: R96, puzzle: Same State NG 2)
Reply | 52.2 nM

* * *

- System: K4 kissing-loop RNA reporter;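 also: bound reporter read as fluorescence of individual clusters on recovered sequencing chips by microscopy, with normalized cluster intensities fitted with a binding model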
- protocol: apparent KD of K4 kissing-loop reporter; higher = weaker reporter binding
- measurement_conditions: Eterna round: R107; input ligand: none
Property: apparent KD of K4 kissing-loop reporter; scope: individual sequences
Answer with the number, then the unit.

Use these answered entries as a reference point.
Ask | Consider the sequence shown here: CCAUCGCUAUUCGAUACCAGUCAUAAAAUCUUUGGUUAAAUAAAGGAGUGAUGUUCCAAAGACCCUUGGCAGCGAAUAGUGAUGG [Theophylline B K4 6] What is its recorded apparent KD of K4 kissing-loop reporter?
Reply | 695 nM

Ask | Try this sequence too: AAGCAUUGGUCUGAUACCAGUUGAUGACGAAUACGUCAACUGGAGUGAUGUUCCUAAAACAACCCUUGGCAGCAGACCGAUGCAA [MAT - Same State Theophlline B - Mod of Eli - D2]
Reply | 835 nM

***
Ask | Returns the measured apparent KD of K4 kissing-loop reporter for the input sequence. Input: AUCUUGUUUGGAGGAUAUUCUUUAUUUGACAUAACCUUCUAUAAGGUGCAGUGAUGUUGCAAUAUAGGAGAAGGUCGAGUGAGAU [Exclusion FMN B GF 18]
Reply | 188 nM

* * *

- Test system: MS2 coat protein
- protocol: apparent KD of MS2 coat protein; designed switch direction (-1 OFF switch, 1 ON switch): -1; higher = weaker reporter binding
- measurement_conditions: input ligand: FMN 200 uM
observation_type: apparent KD of MS2 coat protein (nM)
Write it as a number; the unit nM goes unstated.

Ask | I would be grateful if you could share the reported apparent KD of MS2 coat protein for AAUAUUUUAGGAUAUGGCGGAAUAGACAUGAGGAUCACCCAUGUUAGAGGCGUGGUGAAGUUAGAAGGGAGGUGUU [Eternabot (L1) Solution 6] (Eterna round: R97, puzzle: Exclusion 5) .
Reply | 60

Ask | What do you have for GUUGUACAUGAGGAUCACCCAUGUCAGGAUAUCCACCUCAGAAAGUAUACAGGAUUGUGGAGAAGGGACAUUAA [EX1 C.18] (Eterna round: R97, puzzle: Exclusion 1) ?
Reply | 56

Further cases:
Ask | Look at this sequence and give its reported apparent KD of MS2 coat protein. CCAGCGUAUGUGAGGAUAUGCUGGUCCUUGGAUCAGCAGAAGGCACAUGAGGAUCACCCAUGUGGAAAAGUUGG [Mod of JL 23 - Jieux - Brourd's mod of Exclusion 4] (Eterna round: R97, puzzle: Brourd's mod of Exclusion 4)
Reply | 164

Ask | And then CACCGUUACAGAGGAUAUGGUACAUGAGGAUCACCCAUGUAAUAAAUGAGAAUUUCGGAUGUAUUCCAGAAGGCUGUAAUCGGC [Ostricism 65 - Jieux - Exclusion NG 2] (Eterna round: R96, puzzle: Exclusion NG 2) , what is it?
Reply | 74.9
